Data origin: ChEMBL document CHEMBL1201862

system: SK-MEL-28; assay: NCI tumour cell line growth inhibition, 48 h
The source made the active and inactive calls. Cut-off read from the data, not from the text of the source: active = GI50 up to about 1.1 µM and inactive = higher.
observable: GI50

>>> meas_value("COC(=O)C1=C(C)N(NC(N)=O)C2(N)N(NC(N)=O)C(C)=C(C(=O)OC)C12C#N (stereo not given)")
"> 100 µM (inactive)"

Dear colleague, could you please provide GI50 for the compounds listed below?
1. C=C1C[C@]23C[C@@]1(O)CC[C@H]2[C@@]12C=C[C@H](O)[C@@](C)(C(=O)O1)[C@H]2[C@@H]3C(=O)O
2. Cc1nc(N)nn1C1OCC(O)C(O)C1O (stereo not given)
3. Cc1c[n+]2c3ccccc3c3ccccc3c2s1.[O-][Cl+3]([O-])([O-])[O-]

Response line:
1. > 100 µM (inactive)
2. > 100 µM (inactive)
3. 2.25 µM (inactive)

Dear colleague, could you please provide GI50 for the compounds listed below?
1. Cc1nc(-c2nc([N+](=O)[O-])c([N+](=O)[O-])[nH]2)cs1
2. COc1ccc(/C=N/C23CC4CC(CC(C4)C2)C3)cc1
3. O=c1ccn(C2(CO)C=C(CO)C(O)C2O)c(=O)[nH]1 (stereo not given)

Response line:
> 100 µM (inactive)
> 100 µM (inactive)
> 25.7 µM (inactive)

Dear colleague, could you please provide GI50 for the compounds listed below?
1. O=C1c2cc3c(cc2[C@@H]2C(O)[C@H]4O[C@H]4C4CCN1C42)OCO3 (stereo not given in full)
2. Cc1ccc(S(=O)(=O)N2CCN(S(=O)(=O)c3ccc(C)cc3)CCN(S(=O)(=O)c3ccc(C)cc3)Cc3cc(C#N)c(C#N)cc3CN(S(=O)(=O)c3ccc(C)cc3)CC2)cc1
3. Nc1ccc(/N=N/c2ccc(/C=C/c3ccc(/N=N/c4ccc(N)c5ccc(S(=O)(=O)O)cc45)cc3S(=O)(=O)O)c(S(=O)(=O)O)c2)c2cc(S(=O)(=O)O)ccc12
4. COP(=O)(O)C(N)Cc1c[nH]c2ccccc12 (stereo not given)
5. O=C(OCCN=c1c2ccccc2ccc2ccccc12)c1cc([N+](=O)[O-])cc([N+](=O)[O-])c1

Response line:
1. > 37.5 µM (inactive)
2. > 100 µM (inactive)
3. > 100 µM (inactive)
4. > 100 µM (inactive)
5. > 100 µM (inactive)

Dear colleague, could you please provide GI50 for the compounds listed below?
1. O=c1c2c(F)c(F)c(F)c(F)c2sc2nccn12
2. NCCN1C(=O)c2ccccc2C1c1ccc(Cl)cc1 (stereo not given)
3. CC(C)(C)OC(=O)NCC(=O)N(CCc1ccc(Cl)c(Cl)c1)CCN1CCCC1
4. Cc1ccc(S(=O)(=O)NCCSCCSCCNS(=O)(=O)c2ccc(C)cc2)cc1

Response line:
["23.4 µM (inactive)", "> 100 µM (inactive)", "13 µM (inactive)", "> 100 µM (inactive)"]

Dear colleague, could you please provide GI50 for the compounds listed below?
1. Cc1ccc2c(c1)Nc1ccccc1P2(=O)O
2. Cn1c(=O)c2c(ncn2CCSS(=O)(=O)O)n(C)c1=O
3. CN(C)C(=C1C(Br)=C(Br)C(Br)=C1Br)N(C)C
4. COC(=O)[C@]12CC3C=CC1N(C3)C(CBr)c1c2n(S(=O)(=O)c2ccccc2)c2ccccc12 (stereo not given in full)
5. COc1cccc(N2C(=O)CSC2c2c[nH]c3ccccc23)c1 (stereo not given)

Response line:
> 100 µM (inactive)
> 100 µM (inactive)
> 100 µM (inactive)
> 100 µM (inactive)
> 100 µM (inactive)

Dear colleague, could you please provide GI50 for the compounds listed below?
1. CCOC(=O)C1=C(C)N(NC(=O)c2ccccc2)C2(O)CCCC12C(=O)OCC (stereo not given)
2. COC1=CC(=O)C(C2(OC(C)C)OC(=O)C(Cl)=C2Cl)=CC1=O (stereo not given)
3. O=c1c2cc(Br)ccc2nc(CNc2ccccc2)n1-c1ccccc1
4. CC1CC(=O)C2CC(CO)=CCCC2C1(C)CC/C(=C/CO)CO (stereo not given)
5. CCOc1ccc(NC(=O)/C(=C\c2ccc(C)cc2)C(C)=O)cc1
6. CC(=O)O[C@H]1[C@@H](N2CCOCC2)C[C@H]2[C@@H]3CC=C4C[C@@H](N5CCCC5)CC[C@]4(C)[C@H]3CC[C@@]21C

Response line:
["> 100 µM (inactive)", "> 100 µM (inactive)", "22.4 µM (inactive)", "> 100 µM (inactive)", "> 100 µM (inactive)", "> 100 µM (inactive)"]

Dear colleague, could you please provide GI50 for the compounds listed below?
1. BrC1=CCC23CC=C(Br)[C@H]4CC2(COC3)C[C@@H]1O4 (stereo not given in full)
2. COc1ccccc1C(=O)Nc1ccc(Cl)c(C(=O)OC(C)C)c1
3. Cc1noc2nnn(-c3ccc(Cl)cc3)c(=O)c12
4. C=C1C(=O)OCC2C(C(=O)O)=CC3C(C)C(C)=CC123 (stereo not given)
5. COCOc1c(C(O[Si](C)(C)C(C)(C)C)c2cnc(Sc3ccccc3)n2C)ccc(OC)c1OC (stereo not given)
6. c1ccc(N2N=C(c3ccco3)CC2c2ccco2)cc1 (stereo not given)
7. CCC1=NC(CO)[C@H](c2ccccc2)O1 (stereo not given in full)

Response line:
1. 22.6 µM (inactive)
2. 36.2 µM (inactive)
3. 10.8 µM (inactive)
4. 3.52 µM (inactive)
5. 1.84 µM (inactive)
6. > 100 µM (inactive)
7. > 100 µM (inactive)

Dear colleague, could you please provide GI50 for the compounds listed below?
1. O=C(/C=C/c1ccccc1O)c1cccs1
2. O=C(Nc1ccc2c(c1)oc(=O)c1ccccc12)C(Cl)Cl
3. O=c1[nH]nc(Cc2ccccc2)[nH]1
4. Brc1cccc(C2(CCCC3(c4cccc(Br)n4)OCCO3)OCCO2)n1

Response line:
1. > 100 µM (inactive)
2. > 100 µM (inactive)
3. > 100 µM (inactive)
4. > 100 µM (inactive)

Dear colleague, could you please provide GI50 for the compounds listed below?
1. O=C1c2ccccc2C(=O)c2c(NCCCN3CCOCC3)ccc(NCCCN3CCOCC3)c21
2. COC(=O)[C@@H](NC1(c2ccccc2)c2ccccc2-c2ccccc21)[C@H](OC(=O)[C@H]1CCCN1S(=O)(=O)c1ccccc1)C(=O)OC

Response line:
1. 5.79 µM (inactive)
2. > 100 µM (inactive)
